- System: HT-29
- Measurement Notes: Cytotoxicity against human HT-29 cells assessed as growth inhibition measured by SRB assay
- Format: functional, cell-based
pIC50: −log10 of the molar value.
Answer each item with its documented pIC50.

compound=COC(=O)CC/C(C)=C/Cc1c(OC)c(C)c2c(c1OCC#CCN1CCN(c3ccc(O)cc3)CC1)C(=O)OC2 endpoint_result="< 4.30"

Hi team, please reply with pIC50 for each item in this list.
1. COC(=O)CC/C(C)=C/Cc1c(OC)c(C)c2c(c1OCC#CCN1CCC(Cc3ccccc3)CC1)C(=O)OC2
2. COC(=O)CC/C(C)=C/Cc1c(OC)c(C)c2c(c1OCC#CCN1CCN(c3ccc(C#N)cc3)CC1)C(=O)OC2
3. COC(=O)CC/C(C)=C/Cc1c(OC)c(C)c2c(c1OCC#CCN1CCC(C(=O)OC)CC1)C(=O)OC2
4. COC(=O)CC/C(C)=C/Cc1c(OC)c(C)c2c(c1OCC#CCN1CCN(c3ncccn3)CC1)C(=O)OC2
5. CCCCN(CC#CCOc1c(C/C=C(\C)CCC(=O)OC)c(OC)c(C)c2c1C(=O)OC2)CCCC

["< 4.30", "< 4.30", "< 4.30", "< 4.30", "< 4.30"]

Below are 6 compounds. Give each one its pIC50.
1. COC(=O)CC/C(C)=C/Cc1c(O)c2c(c(C)c1OC)COC2=O
2. COC(=O)CC/C(C)=C/Cc1c(OC)c(C)c2c(c1OCC#CCN1CCC(C(=O)O)CC1)C(=O)OC2
3. COC(=O)CC/C(C)=C/Cc1c(OC)c(C)c2c(c1OCC#CCN1CCC(c3ccccc3)c3ccccc31)C(=O)OC2 (configuration not stated)
4. COC(=O)CC/C(C)=C/Cc1c(OC)c(C)c2c(c1OCC#CCN1CCN(c3ccccc3F)CC1)C(=O)OC2
5. COc1c(C)c2c(c(O)c1C/C=C(\C)CCC(=O)O)C(=O)OC2 [MYCOPHENOLIC ACID]
6. C=CCN(CC#CCOc1c(C/C=C(\C)CCC(=O)OC)c(OC)c(C)c2c1C(=O)OC2)CC=C

1. 4.62
2. < 4.30
3. 4.40
4. < 4.30
5. 5.19
6. < 4.30
